biological target: Claudin 18.2 (CLDN18.2), expressed on CHOS-CLDN 18.2 / HEK293-CLDN 18.2 / HCC827-CLDN 18.2 cells (human, UniProt P56856 1-261); experiment: cell ELISA
property: EC50 (µg/mL)
The reply should be a number in µg/mL, with the unit left off.

Example cases with answers are listed next.
binder="QP14441440 (antibody, V domains shown) VH: QVQLVQSGAEVKKPGASVKVSCKASGYAFSSYWMNWVRQAPGQGLEWIGQIYPGNGDTTYNGKFKGRVTMTADKSTSTVYMELSSLRSEDTAVYYCARFVKGNAMDYWGQGTLVTVSS VL: DIVMTQSPDSLAVSLGERATISCKSSQSLLNSGNQKNYLTWYQQKPGQPPKLLIYWASTRESGVPDRFSGSGSGTDFTLTISSLQAEDVAVYYCQNAYSYPFTFGQGTKLEIK" observed=0.086
binder="QP14561454 (antibody, V domains shown) VH: QVQLVQSGAEVKKPGASVKVSCKASGYTFTNYFVHWVRQAPGQGLEWMGYINPYNDDTKYNEKFKGRVTMTRDTSTSTVYMELSSLRSEDTAVYYCLSLRFFAYWGQGTLVTVSS VL: DIVMTQSPDSLAVSLGERATISCKSSQSLLNSGNQKNYLTWYQQKPGQAPKLLIYWASTRESGVPDRFSGSGSGTDFTLTISSVQAEDVAVYFCQNDYSYPLTFGGGTKVEIKR" observed=0.213

// next entry
## Input Determine its reported EC50: QP192193 (antibody, V domains shown) VH: QVQLQQSGAELVRPGSSVKISCKASGYAFSSYWMNWVKQRPGQGLEWIGQIYPGNGDTTYNGKFKGQATLTADKSSSTVYMQLSSLTSEDSAVYFCARFVKGNAMDYWGQGTSVTVSS VL: DIVMTQSPSSLTVTAGEKVTMSCKSSQSLLNSGNQKNYLTWYQQNPGQPPKMLIYWASTRESGVPDRFTGSGSGIDFSLTISSVQAEDLALYYCQNAYSYPFTFGSGTKLEIK
## Output 0.155
